Hey, just so you know, these numbers are from patent US20210355104A1.

- Measured On: Adenosine A2A receptor (Homo sapiens, UniProt P29274)
- Sequence (P29274 whole entry): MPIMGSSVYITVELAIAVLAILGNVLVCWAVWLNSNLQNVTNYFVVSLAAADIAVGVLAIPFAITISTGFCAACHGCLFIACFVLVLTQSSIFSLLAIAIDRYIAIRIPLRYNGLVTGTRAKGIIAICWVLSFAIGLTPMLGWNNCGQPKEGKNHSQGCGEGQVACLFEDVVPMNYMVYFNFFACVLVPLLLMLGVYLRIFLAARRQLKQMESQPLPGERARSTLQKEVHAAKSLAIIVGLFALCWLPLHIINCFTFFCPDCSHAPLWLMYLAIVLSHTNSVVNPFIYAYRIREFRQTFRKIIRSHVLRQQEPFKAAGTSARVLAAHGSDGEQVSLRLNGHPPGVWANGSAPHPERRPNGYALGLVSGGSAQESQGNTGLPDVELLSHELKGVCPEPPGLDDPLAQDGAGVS
- Assay Remarks: Adenosine A2A receptor competitive binding assay (Tag-lite HTRF)
- Assay Conditions: Tag-lite adenosine A2A receptor ligand binding, 2 h room temperature; values separated by / are repeat determinations
pIC50: −log10 of the molar value.
Quantity Measured: pIC50

> print(dat)
                                   compound  quantity.measured  numeric.readout
1  Cc1cc(-c2c(OCc3cccc(=O)n3C(C)C)nc(N)nc2-c2ccc(F)cc2)cc(C(F)F)n1 [Example 186]              pIC50             8.59
2  Cc1cc(-c2c(OCc3cccc(CO[C@H]4CCOC4)n3)nc(N)nc2-c2ccc(C)o2)cc(C(F)(F)F)n1 [Example 7]              pIC50             7.24
3  Cc1cc(-c2c(OCC(=O)NCc3ccccc3)nc(N)nc2-c2ccc(F)cc2)cc(C(F)F)n1 [Example 84]              pIC50             7.77

---

- Measured On: Adenosine A2A receptor (Homo sapiens, UniProt P29274)
- Assay Remarks: cAMP assay in 293A cells stably expressing the adenosine A2A receptor (CGS21680 stimulation, HTRF)
- Type: cell-based
- Set-up: expressed in transfected cells; host or cells: 293A cells (Invitrogen, Cat# R705-07) infected with A2A-expressing lentivirus (custom packaged by Biosettia), puromycin selected
- Assay Conditions: 293A-A2AR cells, 0.1% BSA, 1 uM CGS; values separated by / are repeat determinations; read-out: cAMP (nM) 0.1% BSA, 1 uM CGS
Reported values of IC50 for individual entries
Quantity Measured: IC50 (nM)

> print(dat)
                                 cpd.smiles  numeric.readout
1  Cc1cc(-c2c(OCc3nccn3C3CCC3)nc(N)nc2-c2ccc(F)cc2)cc(C(F)F)n1              151
2  Cc1cc(-c2c(OCC(=O)N(CCO)CCO)nc(N)nc2-c2ccc(F)cc2)cc(C(F)F)n1             4260
3  Cc1cc(-c2c(OCCN(C)c3cccnn3)nc(N)nc2-c2ccc(F)cc2)cc(C(F)F)n1               98
4  Cc1cc(-c2c(OCc3nccn3CC3CC3)nc(N)nc2-c2ccc(F)cc2)cc(C(F)F)n1              271
5  Cc1cc(-c2c(OC[C@H](O)CO)nc(N)nc2-c2ccc(F)cc2)cc(C(F)F)n1             1070
6  Cc1cc(-c2c(OCC3(F)CCOCC3)nc(N)nc2-c2ccc(F)cc2)cc(C(F)F)n1               10
7  Cc1cc(-c2c(OCc3nccn3C3CC3)nc(N)nc2-c2ccc(F)cc2)cc(C(F)F)n1               33
8  Cc1cc(-c2c(OC[C@H](C)O)nc(N)nc2-c2ccc(F)cc2)cc(C(F)F)n1              547

---

- Measured On: Adenosine A2A receptor (Homo sapiens)
- Assay Remarks: cAMP assay in 293A cells stably expressing the adenosine A2A receptor (CGS21680 stimulation, HTRF)
- Assay type: cell-based
- Design: expressed in transfected cells; host or cells: 293A cells (Invitrogen, Cat# R705-07) infected with A2A-expressing lentivirus (custom packaged by Biosettia), puromycin selected
- Assay Conditions: 293A-A2AR cells, 0.1% BSA, 8 nM CGS; values separated by / are repeat determinations; read-out: cAMP (nM) 0.1% BSA, 8 nM CGS
Reported values of IC50 for individual entries
Quantity Measured: IC50

> print(dat)
                                   molecule                            measured.on  quantity.measured  result
1  Cc1cc(-c2c(OCCN3CCN(c4ccc(S(C)(=O)=O)cc4)CC3)nc(N)nc2-c2ccc(F)cc2)cc(C(F)F)n1 [Example 56]  Adenosine A2A receptor (Homo sapiens)               IC50  3.6 nM
2  Cc1cc(-c2c(OCCNc3ccccc3)nc(N)nc2-c2ccc(F)cc2)cc(C(F)F)n1 [Example 82]  Adenosine A2A receptor (Homo sapiens)               IC50  1.6 nM
3  Cc1cc(-c2c(CNC(=O)N(C)C)nc(N)nc2-c2ccc(F)cc2)cc(C(F)F)n1 [Example 78]  Adenosine A2A receptor (Homo sapiens)               IC50   51 nM
4  CCOC(=O)NCc1nc(N)nc(-c2ccccc2)c1-c1cc(C)nc(C(F)(F)F)c1 [Example 63]  Adenosine A2A receptor (Homo sapiens)               IC50  8.3 nM
5  Cc1cc(-c2c(OCc3nn(C)cc3C(C)C)nc(N)nc2-c2ccc(F)cc2)cc(C(F)F)n1 [Example 184]  Adenosine A2A receptor (Homo sapiens)               IC50  8.8 nM
